METHOD SUMMARY: Ratio of compound cytotoxic concentration (CC50) to that of antiviral activity (EC50)
Type: functional
MEASURED ATTRIBUTE: SI

{"columns": ["COMPOUND", "SI"],
 "data": [
  ["CCCC1(CCc2ccccc2)OC(=O)C(C(CC)c2cccc(NS(=O)(=O)c3ccc(N)cn3)c2)=C(O)O1 (stereo unspecified)", "<1"],
  ["CCCC1(CCc2ccccc2)OC(=O)C(C(CC)c2cccc(NS(=O)(=O)c3ccc(C(F)(F)F)cn3)c2)=C(O)O1 (stereo unspecified)", 65.69],
  ["CCCC1(CCc2ccccc2)OC(=O)C(C(CC)c2cccc(NS(=O)(=O)c3ccc(C#N)cn3)c2)=C(O)O1 (stereo unspecified)", 6.77],
  ["CCCC1(CCc2ccccc2)OC(=O)C(C(CC)c2cccc(NS(=O)(=O)c3ccc(C#N)cc3)c2)=C(O)O1 (stereo unspecified)", "<1"],
  ["CCCC1(CCc2ccccc2)OC(=O)C(C(CC)c2cccc(NS(=O)(=O)c3ccccn3)c2)=C(O)O1 (stereo unspecified)", ">2.05"]
]}

# input compound: CCCC1(CCc2ccccc2)OC(=O)C(C(CC)c2cccc(NS(=O)(=O)c3ccc([N+](=O)[O-])cn3)c2)=C(O)O1 (stereo unspecified) ; wanted: its SI <1
